Each recorded value in this set is attributed to patent US20070178531A1.

- Study System: T1, Human Id3: Histidine (human, UniProt Q02535 1-119 at identity 1.00))
- T1 construct: Fusion protein made in E. coli from vector pGW07; also called h-Id3: His; Human Id3 (coated wells); not shown: His tag
- T1 chain: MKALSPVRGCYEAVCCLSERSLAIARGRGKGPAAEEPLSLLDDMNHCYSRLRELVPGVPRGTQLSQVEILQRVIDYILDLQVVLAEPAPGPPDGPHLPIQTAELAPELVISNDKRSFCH
- Assay Text: ELISA, Ab 0.025 µg/ml
Form field: A450 (one value per entry).
Measured Parameter: A450 (A450)

[
  {
    "Binder": "rabbit monoclonal anti-mouse/human Id3, clone #BCH-4/#16-1 (antibody, V domains shown, Rabbit IgG from a rabbit hybridoma; also called m/h Id3 MoAb 16-1) VH: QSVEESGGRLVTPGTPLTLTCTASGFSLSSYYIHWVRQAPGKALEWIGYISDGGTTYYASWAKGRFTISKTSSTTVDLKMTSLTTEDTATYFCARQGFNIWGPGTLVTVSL VL: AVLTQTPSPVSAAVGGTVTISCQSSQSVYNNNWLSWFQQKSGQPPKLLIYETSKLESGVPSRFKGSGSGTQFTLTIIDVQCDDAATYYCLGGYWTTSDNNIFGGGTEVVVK",
    "Measured Parameter": "A450",
    "Measure Unit": "A450",
    "Observed Result": 0.802
  },
  {
    "Binder": "rabbit monoclonal anti-mouse/human Id3, clone #BCH-4/#42-1 (antibody, V domains shown, Rabbit IgG from a rabbit hybridoma; also called m/h Id3 MoAb 42-1) VH: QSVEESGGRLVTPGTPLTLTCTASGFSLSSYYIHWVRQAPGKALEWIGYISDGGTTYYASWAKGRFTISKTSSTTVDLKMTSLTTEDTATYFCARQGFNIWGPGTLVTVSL VL: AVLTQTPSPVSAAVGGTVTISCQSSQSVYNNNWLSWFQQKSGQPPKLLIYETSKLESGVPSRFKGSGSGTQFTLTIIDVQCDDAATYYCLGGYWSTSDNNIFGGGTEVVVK",
    "Measured Parameter": "A450",
    "Measure Unit": "A450",
    "Observed Result": 1.44
  },
  {
    "Binder": "rabbit monoclonal anti-mouse/human Id3, clone #BCH-4/#6-1 (antibody, V domains shown, Rabbit IgG from a rabbit hybridoma; also called m/h Id3 MoAb 6-1) VH: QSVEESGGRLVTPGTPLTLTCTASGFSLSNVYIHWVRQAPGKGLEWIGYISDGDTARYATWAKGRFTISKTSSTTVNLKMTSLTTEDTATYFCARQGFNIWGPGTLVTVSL VL: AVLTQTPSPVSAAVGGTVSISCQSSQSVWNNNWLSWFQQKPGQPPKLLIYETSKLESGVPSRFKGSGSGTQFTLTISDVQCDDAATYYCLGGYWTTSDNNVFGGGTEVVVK",
    "Measured Parameter": "A450",
    "Measure Unit": "A450",
    "Observed Result": 0.974
  },
  {
    "Binder": "rabbit monoclonal anti-mouse/human Id3, clone #BCH-4/#17-3 (antibody, V domains shown, Rabbit IgG from a rabbit hybridoma; also called m/h Id3 MoAb 17-3; BCH-3/#17-3) VH: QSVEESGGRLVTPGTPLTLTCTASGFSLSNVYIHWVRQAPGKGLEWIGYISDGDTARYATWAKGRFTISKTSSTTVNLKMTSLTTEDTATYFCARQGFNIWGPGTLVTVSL VL: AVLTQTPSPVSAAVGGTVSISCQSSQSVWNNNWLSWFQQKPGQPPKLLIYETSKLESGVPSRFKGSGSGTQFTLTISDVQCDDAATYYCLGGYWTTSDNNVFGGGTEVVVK",
    "Measured Parameter": "A450",
    "Measure Unit": "A450",
    "Observed Result": 1.27
  }
]
